All values here come from patent US12030877B2.

- TARGET_DESC: mPGES-1 Mouse enzyme (Mus musculus, UniProt Q9JM51)
- Construct: made in house; host or cells: FreeStyle 293-F cells, crude microsomal preparation
- Sequence (Q9JM51 whole entry): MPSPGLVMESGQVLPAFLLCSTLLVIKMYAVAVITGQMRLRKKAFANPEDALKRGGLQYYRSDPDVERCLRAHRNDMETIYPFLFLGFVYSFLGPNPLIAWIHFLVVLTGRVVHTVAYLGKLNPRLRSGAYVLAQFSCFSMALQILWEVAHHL
- MEASUREMENT_NOTES: mPGES-1 enzyme activity assay (PGE2 enzyme immunoassay), mouse enzyme
- Assay type: biochemical
- EXPERIMENTAL_CONDITIONS: IC50 against mPGES-1, Mouse enzyme, recombinant microsomal enzyme; means ± SD, triplicate
MEASURED_ATTRIBUTE: pIC50
Here pIC50 is given on a logarithmic scale as minus log10 of the concentration in mol/L.

// worked examples, pIC50 included
| MOLECULE | TARGET_DESC | pIC50 |
| --- | --- | --- |
| O=C1NC(=O)C(=Cc2ccc(OCCCCC3CCCCC3)c(Cl)c2)C(=O)N1 | mPGES-1 Mouse enzyme (Mus musculus, UniProt Q9JM51) | 6.38 |
| O=C1NC(=O)C(=Cc2ccc(OCCC3CCCCC3)c([N+](=O)[O-])c2)C(=O)N1 | mPGES-1 Mouse enzyme (Mus musculus, UniProt Q9JM51) | 5.62 |
| O=C1NC(=O)C(Cc2ccc(OCCCCC3CCCCC3)c(Cl)c2)C(=O)N1 | mPGES-1 Mouse enzyme (Mus musculus, UniProt Q9JM51) | 5.88 |
| COc1cc(C=C2C(=O)NC(=O)NC2=O)ccc1OCCCCC1CCCCC1 | mPGES-1 Mouse enzyme (Mus musculus, UniProt Q9JM51) | 5.84 |
| CCCCOc1ccc(-c2nn(-c3ccccc3)cc2C=C2C(=O)NC(=O)NC2=O)cc1 | mPGES-1 Mouse enzyme (Mus musculus, UniProt Q9JM51) | 5.59 |
| CCCCCCCCOc1ccc(-c2nn(-c3ccc(Cl)cc3)cc2C=C2C(=O)NC(=O)NC2=O)cc1 | mPGES-1 Mouse enzyme (Mus musculus, UniProt Q9JM51) | 6.13 |
| O=C1NC(=O)C(Cc2ccc(OCCCCC3CCCCC3)c(Br)c2)C(=O)N1 | mPGES-1 Mouse enzyme (Mus musculus, UniProt Q9JM51) | 5.96 |
| O=C1NC(=O)C(=Cc2ccc(OCCCOc3ccccc3)c(Cl)c2)C(=O)N1 | mPGES-1 Mouse enzyme (Mus musculus, UniProt Q9JM51) | 5.09 |
| O=C1NC(=O)C(=Cc2ccc(OCCCCC3CCCCC3)c(O)c2)C(=O)N1 | mPGES-1 Mouse enzyme (Mus musculus, UniProt Q9JM51) | 5.54 |
| O=C1NC(=O)C(=Cc2ccc(OCCCCC3CCCCC3)cc2)C(=O)N1 | mPGES-1 Mouse enzyme (Mus musculus, UniProt Q9JM51) | 5.15 |

# input for lookup
Q: State the recorded pIC50 for this entry: COc1cc(C=C2C(=O)NC(=O)NC2=O)cc(I)c1OCCCCC1CCCCC1
Result: 6.44

###

- TARGET_DESC: mPGES-1 Mouse enzyme (Mus musculus)
- Construct: made in house; host or cells: FreeStyle 293-F cells, crude microsomal preparation
- MEASUREMENT_NOTES: mPGES-1 enzyme activity assay (PGE2 enzyme immunoassay), mouse enzyme
- Assay type: biochemical
- EXPERIMENTAL_CONDITIONS: compound at a concentration of 10 μM; read-out: % inhibition of the compound against mPGES-1, Mouse enzyme
MEASURED_ATTRIBUTE: inhibition at 10 µM (%)
Answer in %, number only, no unit symbol.

// worked examples, inhibition at 10 µM included
| MOLECULE | TARGET_DESC | UNIT_DESCRIPTOR | inhibition at 10 µM |
| --- | --- | --- | --- |
| CCOc1ccc(-c2nn(-c3ccc(Cl)cc3)cc2C=C2C(=O)NC(=S)NC2=O)cc1 [VI-10] | mPGES-1 Mouse enzyme (Mus musculus) | % | 46 |
| CCOc1ccc(-c2nn(-c3ccc(Cl)cc3)cc2/C=C2\SC(=O)N(CC(=O)O)C2=O)cc1 [VII-10] | mPGES-1 Mouse enzyme (Mus musculus) | % | 35 |
| CN1C(=O)C(=Cc2ccc(OCCCCC3CCCCC3)c(Br)c2)C(=O)N(C)C1=O [Compound I-19] | mPGES-1 Mouse enzyme (Mus musculus) | % | 24 |
| CCCCCCCCOc1ccc(-c2nn(-c3ccc(Cl)cc3)cc2/C=C(/C#N)C(=O)O)cc1 [VII-17] | mPGES-1 Mouse enzyme (Mus musculus) | % | 29 |
| CCOc1ccc(-c2nn(-c3ccc(Cl)cc3)cc2/C=C(/C#N)C(=O)O)cc1 [VII-12] | mPGES-1 Mouse enzyme (Mus musculus) | % | 12 |

Q: State the recorded inhibition at 10 µM for this entry: O=C1NC(=O)C(=Cc2cc(Cl)ccc2OCCCCC2CCCCC2)C(=O)N1 [Compound I-13]
Result: 28

Q: Then what about the molecule N#C/C(=C/c1cn(-c2ccccc2)nc1-c1ccc(OCc2ccccc2)cc1)C(=O)O [VII-20] ?
Result: 16

Q: Then what about the molecule O=C(O)CN1C(=O)/C(=C2\SC(=O)N(CCCCC3CCCCC3)C2=O)c2ccccc21 [II-32] ?
Result: 44
